# Kd annotations
assay_target: T1, human a-Mesothelin (Acro Biosystems; MSN_H5223) (human, UniProt Q13421 296-580, limits assumed)
T1 construct: Bought protein immobilised on the SPR chip; Printed as 'a-Mesothelin' but used as the antigen for the anti-MSLN scFvs; also called Human MSLN; MSLN
T1 sequence (Q13421 other isoform, or with tags, fused parts or gaps limits assumed): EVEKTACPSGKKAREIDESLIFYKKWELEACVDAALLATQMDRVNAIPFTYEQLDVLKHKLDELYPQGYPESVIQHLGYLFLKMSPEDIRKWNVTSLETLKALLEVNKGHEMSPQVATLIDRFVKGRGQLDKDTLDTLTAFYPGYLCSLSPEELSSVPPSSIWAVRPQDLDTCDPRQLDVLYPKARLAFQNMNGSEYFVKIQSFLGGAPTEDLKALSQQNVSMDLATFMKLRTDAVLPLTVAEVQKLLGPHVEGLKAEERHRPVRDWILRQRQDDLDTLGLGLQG
assay: SPR, mesothelin immobilised, scFv analyte, 1:1 fit
observable: Kd (nM)

| binder | observable | quantity_unit | obs_value |
| --- | --- | --- | --- |
| PRO3344 (scFv 54-21-H03-sc01_(T101K, T146Q)) (scFv, PRO1922 variant; VH substitutions, AHo numbering; also called PRO1922 T101K-T146Q) scFv: DIQMTQSPSSLSASVGDRVTITCQASESIYSSLAWYQQKPGKAPKLLIYLASTLASGVPSRFSGSGSGTDFTLTISSLQPEDFATYYCQSTDYTTSTHRNSFGTGTKVTVLGGGGGSGGGGSGGGGSGGGGSEVQLVESGGGLVQPGGSLRLSCAASGFSFSTTYYMCWVRQAPGKGLEWIGCTNTASSVRTYYATWAKGRFTISRDNSKNTVYLQMNSLRAEDKAVYYCARDMGFADYALNLWGQGTLVQVSS | Kd | nM | 1.6 |
| PRO3329 (scFv 54-21-H03-sc01_(T101Q)) (scFv, PRO1922 variant; VH substitution, AHo numbering; also called PRO1922 T101Q) scFv: DIQMTQSPSSLSASVGDRVTITCQASESIYSSLAWYQQKPGKAPKLLIYLASTLASGVPSRFSGSGSGTDFTLTISSLQPEDFATYYCQSTDYTTSTHRNSFGTGTKVTVLGGGGGSGGGGSGGGGSGGGGSEVQLVESGGGLVQPGGSLRLSCAASGFSFSTTYYMCWVRQAPGKGLEWIGCTNTASSVRTYYATWAKGRFTISRDNSKNTVYLQMNSLRAEDQAVYYCARDMGFADYALNLWGQGTLVTVSS | Kd | nM | 1.6 |
| PRO2930 (scFv 54-21-H03-sc01_(L144K, T146E, S148K)) (scFv, PRO1922 variant; VH substitutions, AHo numbering; also called PRO1922 L144K-T146E-S148K) scFv: DIQMTQSPSSLSASVGDRVTITCQASESIYSSLAWYQQKPGKAPKLLIYLASTLASGVPSRFSGSGSGTDFTLTISSLQPEDFATYYCQSTDYTTSTHRNSFGTGTKVTVLGGGGGSGGGGSGGGGSGGGGSEVQLVESGGGLVQPGGSLRLSCAASGFSFSTTYYMCWVRQAPGKGLEWIGCTNTASSVRTYYATWAKGRFTISRDNSKNTVYLQMNSLRAEDTAVYYCARDMGFADYALNLWGQGTKVEVKS | Kd | nM | 1.3 |
| PRO3323 (scFv 54-21-H03-sc01_(L12A, T101Q, L144A, T146Q)) (scFv, PRO1922 variant; VH substitutions, AHo numbering; also called PRO1922 L12A-T101Q-L144A-T146Q) scFv: DIQMTQSPSSLSASVGDRVTITCQASESIYSSLAWYQQKPGKAPKLLIYLASTLASGVPSRFSGSGSGTDFTLTISSLQPEDFATYYCQSTDYTTSTHRNSFGTGTKVTVLGGGGGSGGGGSGGGGSGGGGSEVQLVESGGGAVQPGGSLRLSCAASGFSFSTTYYMCWVRQAPGKGLEWIGCTNTASSVRTYYATWAKGRFTISRDNSKNTVYLQMNSLRAEDQAVYYCARDMGFADYALNLWGQGTAVQVSS | Kd | nM | 1.7 |
| PRO2938 (scFv 54-21-H03-sc01_(L12A, T101S, L144A, T146Q)) (scFv, PRO1922 variant; VH substitutions, AHo numbering; also called PRO1922 L12A-T101S-L144A-T146Q) scFv: DIQMTQSPSSLSASVGDRVTITCQASESIYSSLAWYQQKPGKAPKLLIYLASTLASGVPSRFSGSGSGTDFTLTISSLQPEDFATYYCQSTDYTTSTHRNSFGTGTKVTVLGGGGGSGGGGSGGGGSGGGGSEVQLVESGGGAVQPGGSLRLSCAASGFSFSTTYYMCWVRQAPGKGLEWIGCTNTASSVRTYYATWAKGRFTISRDNSKNTVYLQMNSLRAEDSAVYYCARDMGFADYALNLWGQGTAVQVSS | Kd | nM | 1.6 |

These measurements were taken from patent US20250382363A1.
